Target: Nuclear receptor subfamily 1 group I member 3 (Homo sapiens)
Test: qHTS assay to identify small molecule antagonists of the constitutive androstane receptor (CAR) signaling pathway (AID 1224838);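 further: HepG2 cells stably expressing hCAR with CYP2B6 luciferase reporter stimulated by CITCO; nearly all actives have a fitted effect of over 40% in size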
Settings: HepG2-CYP2B6-hCAR luciferase, CITCO-stimulated, 24 h; series mostly up to 92.4 µM
Results filed as inconclusive are left out. Activity calls are given as the source filed them. The call rests on the fitted dose curve; in most records, active means well fitted inhibition curve with a large enough effect in the repeat runs; inconclusive means weak or mixed curves, or effect the other way; inactive means no such curve, though single readings can be large or run the other way.
Outcomes: True (active), False (inactive)

>>> group("COc1cc(C=O)cc2c1[C@H](COC(N)=O)[C@]1(OC(C)=O)ON2C[C@H]2[C@@H]1N2C(C)=O")
"True"
>>> group("CCOc1cc(C(C)(C)C)ccc1C1COC(c2c(F)cccc2F)=N1 (configuration not stated)")
"False"
>>> group("CCN(CC)c1c([N+](=O)[O-])cc(C(F)(F)F)c(N)c1[N+](=O)[O-]")
"False"
>>> group("CCOC(=O)OC1=C(c2cc(C)ccc2C)C(=O)NC12CCC(OC)CC2 (configuration not stated)")
"False"
>>> group("c1ccc(OCC2CO2)cc1 (configuration not stated)")
"False"
>>> group("CCOP(=S)(OCC)OC(Cl)C(Cl)(Cl)Cl (configuration not stated)")
"False"
>>> group("[Cl][Sn]([c]1ccccc1)([c]1ccccc1)[c]1ccccc1")
"True"
>>> group("C=CCOC(N)=O")
"False"
>>> group("CC(=O)OC1(c2ccccc2)CCN(CCc2ccccc2)CC1")
"True"
>>> group("O=c1oc2ccccc2c(O)c1Cc1c(O)c2ccccc2oc1=O")
"False"
>>> group("Nc1ccccc1C(=O)OC/C=C/c1ccccc1")
"False"
>>> group("Cc1cccc(OP(=O)(Oc2cccc(C)c2)Oc2cccc(C)c2)c1")
"False"

###

Test: qHTS assay to identify small molecule antagonists of the androgen receptor (AR) signaling pathway using the MDA cell line in the presence of 0.5 nM R1881 - cell viability counter screen (AID 1259242); further: nearly all actives have a fitted effect of over 45% in size
Details: MDA-kb2 viability, CellTiter-Fluor protease fluorescence, 16 h; series mostly up to 92.4 µM
Results filed as inconclusive are left out. The source made the active and inactive calls. The call rests on the fitted dose curve; in most records, active means well fitted cell-killing curve with a large enough effect in the repeat runs; inconclusive means weak or mixed curves, or effect the other way; inactive means flat fitted curve, though single readings scatter.
Outcomes: t for active, f for inactive

>>> group("CCOP(=S)(OCC)SCS(=O)(=O)C(C)(C)C")
"f"
>>> group("O=[N+]([O-])c1ccc(Oc2ccc(C(F)(F)F)cc2[N+](=O)[O-])cc1")
"f"
>>> group("Cc1ccc(CCl)cc1")
"f"
>>> group("ClC1=C(Cl)[C@]2(Cl)[C@@H]3[C@@H](Cl)[C@@H](Cl)C[C@@H]3[C@@]1(Cl)C2(Cl)Cl")
"f"
>>> group("CC(Cc1ccc(C(C)(C)C)cc1)CN1C[C@@H](C)O[C@@H](C)C1 (some centres undefined)")
"f"
>>> group("O=C1C=CC(=O)c2ccccc21")
"t"
>>> group("CSCCCN=C=S")
"f"
>>> group("CN(C)CCc1c[nH]c2ccc(O)cc12")
"f"
>>> group("CCCCCCCCCBr")
"f"
>>> group("OC(Cc1ccccc1Cl)(Cn1cncn1)C1(Cl)CC1 (centres undefined)")
"f"
>>> group("Clc1ccc(Oc2ccccc2)cc1")
"f"
>>> group("NNC(=O)c1ccccc1")
"f"
>>> group("Cc1cc(C(C)(C)c2cc(C)c(O)c(C)c2)cc(C)c1O")
"f"
>>> group("COc1ccc(/C(=C/C(=O)N2CCOCC2)c2ccc(Cl)cc2)cc1OC")
"f"
